All values here come from patent US12234240B2.

# assay_remarks: Mouse liver microsome stability assay
# Type: in vitro ADME
# measurement_parameters: 2 h, percentage remaining relative to t0, error SEM, n ≥ 2
readout: Stability (2 h, Microsomes) (%)

Cn1nnc2c(-c3ccccc3)ncn2c1=O
44
Cn1nnc2c(Cl)ncn2c1=O
91

I = CCCCN(CCCC)C(=O)c1ncn2c(=O)n(C)nnc12
II = CCN(CC)C(=O)c1ncn2c(=O)n(C)nnc12
Which value of Stability (2 h, Microsomes) is smaller, the one for I or the one for II ? Mark your answer with the label of the selected entry.
I

###

# assay_remarks: physchem
# measurement_parameters: buffered saline (PBS), pH 7.4
readout: half-life (h)
Could you give me the number in h? Just the number is fine.

Lab book: half-life of Cc1ncn2c(=O)n(C)nnc12 [Compound 14] noted as 40

###

# assay_remarks: Stability in the absence of microsomes (microsomes replaced with PBS)
# Format: physicochemical
# measurement_parameters: liver microsomes replaced with PBS, percentage remaining relative to t0
readout: Stability (2 h, No Microsomes) (%)

CCN(CC)C(=O)c1ncn2c(=O)n(C)nnc12
95
Cn1nnc2c(-c3ccccc3)ncn2c1=O
103
Cn1nnc2c(C(N)=O)ncn2c1=O [TMZ, temozolomide, reference compound]
86
Cn1nnc2c(Cl)ncn2c1=O
91
CCCCN(CCCC)C(=O)c1ncn2c(=O)n(C)nnc12
98

###

IC50 by entry:
# Tested on: T98G cells
# assay_remarks: Cell viability, Alamar Blue, 7-day incubation, T98G
# Format: cell-based
# measurement_parameters: Homo sapiens, 168 h, Table 1b, MGMT +, error SEM, read-out: 7-day IC50 T98G
Give your result in µM as a bare value.

Worked set:
Cn1nnc2c(-c3ccc(Cl)cc3)ncn2c1=O
19
Cn1nnc2c(Br)ncn2c1=O
60
Cn1nnc2c(-c3ccc(F)cc3)ncn2c1=O
18

Query molecule follows.
Short answer for Cn1nnc2c(C(N)=O)ncn2c1=O [TMZ, temozolomide, reference compound] : IC50 was 660
